Target: T1, 4H3010-bN
T1 chain: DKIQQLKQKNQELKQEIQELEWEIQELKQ
Assay: two-hybrid library CCNG1;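 note: natural log of median RNA to DNA barcode read ratio; higher means stronger binding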
Threshold check on interaction score: strictly below 0.07 is Condition met; on or above 0.07 is Condition not met.

Would you please look over these solved cases?
DEIQQLEQEIQELKQKIQELKWKNQELKQ [4H112-bN] = Condition not met
DENQQLKQKIQELEQKIQELEWKNQELEQ [4H1831-bN] = Condition met
DKIQQLKQENQELEQEIQELKWKIQELKQ [4H2702-bN] = Condition not met
DKIQQLKQEIQELKQEIQELEWENQELEQ [4H2627-bN] = Condition met

interaction score under 0.07? Item: DKIQQLKQKNQELKQEIQELEWEIQELKQ [4H3010-bN]
Condition met

Please state whether interaction score is below 0.07 for DKIQQLKQEIQELEQENQELKWEIQELKQ [4H2586-bN]
Condition met

Is it true that interaction score reported for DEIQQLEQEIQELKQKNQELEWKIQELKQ [4H118-bN] is less than 0.07?
Condition not met

Determine if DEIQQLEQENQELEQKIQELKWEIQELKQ [4H170-bN] shows interaction score strictly lower than 0.07.
Condition not met

hey, is interaction score for DENQQLEQENQELEQEIQELEWKIQELKQ [4H1158-bN] lower than 0.07 or not?
Condition not met

Strictly below 0.07 in interaction score? DKIQQLKQEIQELKQKNQELEWEIQELEQ [4H2673-bN]
Condition not met

For this binder, is interaction score lower than 0.07? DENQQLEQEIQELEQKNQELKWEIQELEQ [4H1081-bN]
Condition met

Data origin: paper PMC10397247
